target: Cyclin-T1/Cyclin-dependent kinase 9 (Homo sapiens, UniProt O60563+P50750); assay: Inhibition of recombinant full length human N-terminal GST-fused CDK9 (1 to 372 residues)/His-tagged CyclinT1 (1 to 726 residues) expressed in baculovirus infected insect cells using FITC-X-GSRTPMY-NH2 as substrate preincubated for 10 mins followed by MgCl2 addition and measured after 90 mins in presence of 5 mM ATP by mobility shift assay
Sequence (O60563 whole entry, the tested form may be a part): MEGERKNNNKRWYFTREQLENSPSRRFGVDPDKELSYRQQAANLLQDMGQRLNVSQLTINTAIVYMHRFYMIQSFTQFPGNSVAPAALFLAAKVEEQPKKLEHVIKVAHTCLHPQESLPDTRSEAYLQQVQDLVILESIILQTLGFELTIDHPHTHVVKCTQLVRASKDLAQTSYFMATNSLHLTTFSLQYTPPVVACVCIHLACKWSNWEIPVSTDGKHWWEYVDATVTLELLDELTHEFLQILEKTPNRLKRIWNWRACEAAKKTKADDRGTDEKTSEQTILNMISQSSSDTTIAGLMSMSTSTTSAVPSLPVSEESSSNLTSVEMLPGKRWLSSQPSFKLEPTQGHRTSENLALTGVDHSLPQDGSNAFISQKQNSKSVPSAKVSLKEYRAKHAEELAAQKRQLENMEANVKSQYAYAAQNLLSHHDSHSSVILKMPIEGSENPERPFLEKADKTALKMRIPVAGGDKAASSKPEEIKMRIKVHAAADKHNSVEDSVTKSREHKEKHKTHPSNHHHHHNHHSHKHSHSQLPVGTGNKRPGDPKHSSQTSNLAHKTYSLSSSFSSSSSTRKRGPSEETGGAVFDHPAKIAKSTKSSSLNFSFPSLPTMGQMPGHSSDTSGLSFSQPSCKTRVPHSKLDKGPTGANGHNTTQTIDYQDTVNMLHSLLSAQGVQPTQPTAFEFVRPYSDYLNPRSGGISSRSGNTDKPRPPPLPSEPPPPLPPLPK
Sequence (P50750 whole entry, the tested form may be a part): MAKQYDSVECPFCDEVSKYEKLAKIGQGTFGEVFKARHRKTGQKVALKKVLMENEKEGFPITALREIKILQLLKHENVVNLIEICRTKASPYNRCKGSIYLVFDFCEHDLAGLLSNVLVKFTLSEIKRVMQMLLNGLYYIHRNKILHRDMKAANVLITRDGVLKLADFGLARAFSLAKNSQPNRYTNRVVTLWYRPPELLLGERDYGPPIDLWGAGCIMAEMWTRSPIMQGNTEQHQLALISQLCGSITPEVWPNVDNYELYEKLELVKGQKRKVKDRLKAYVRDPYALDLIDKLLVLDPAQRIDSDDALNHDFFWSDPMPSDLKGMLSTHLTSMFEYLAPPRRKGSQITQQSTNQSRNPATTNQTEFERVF
observable: IC50 (µM)

compound	IC50 / µM
CC(=O)N[C@@H]1CCC[C@H](C(=O)Nc2cc(-c3cnn4c3CCCC4)c(F)cn2)C1	0.051
CC(=O)N[C@@H]1CCC[C@H](C(=O)Nc2cc(-c3cnn4c3CCCCC4)c(Cl)cn2)C1	0.023
CC(=O)N[C@@H]1CCC[C@H](C(=O)Nc2cc(-c3cnn4c3CC(C)(C)CC4)ccn2)C1	0.008

[I] CC(=O)N[C@@H]1CC[C@H](C(=O)Nc2cc(-c3cnn4c3CC(C)(C)C4)c(Cl)cn2)C1
[II] CC(=O)N[C@@H]1CCC[C@H](C(=O)Nc2cc(-c3cnn4c3NCCC4)c(Cl)cn2)C1
[III] CC(=O)N[C@@H]1CCC[C@H](C(=O)Nc2cc(-c3cn[nH]c3CC(C)(C)CO)c(Cl)cn2)C1 [US10717746, Example 82a]
[IV] CC(=O)N[C@@H]1CCC[C@H](C(=O)Nc2cc(-c3cnn4c3CCCC4O)c(Cl)cn2)C1 (some centres not stated)
Ordering: ascending IC50. Provide your answer as the labels ordered per the instruction.
I, IV, III, II
(I: 0.003 µM, IV: 0.06 µM, III: 0.139 µM, II: 0.35 µM)
